Values compiled from patent US7112573B2.

Tested on: DU 145 prostate carcinoma cell line
assay overview: MTT cytotoxicity assay, DU 145
Format: cell-based, human
test parameters: 6 days incubation, 50% reduction of absorbance vs untreated controls, mean of 2 observations
Please go through the items and note down their ED50 Prostate Carcinoma DU 145.
Quick reminder: number only, in µg/mL, skip the unit.

Recorded ED50 Prostate Carcinoma DU 145 of CC1(C)C[C@H]2C3=CC[C@@H]4[C@@]5(C)CC[C@H](O[C@@H]6O[C@H](C(=O)O)[C@@H](O)[C@H](O)[C@H]6O[C@@H]6O[C@H](CO)[C@H](O)[C@H](O)[C@H]6O)[C@](C)(CO)[C@@H]5CC[C@@]4(C)[C@]3(C)CC[C@@]2(C)[C@H](O[C@@H]2OC[C@H](O)[C@H](O[C@@H]3O[C@H](CO)[C@@H](O)[C@H](O)[C@H]3O)[C@H]2O)[C@@H]1O [Compound 15, reference compound] , please.
2.11

What do you get for CC1(C)C[C@@H](O)[C@]2(C)CC[C@]3(C)C(=CC[C@@H]4[C@@]5(C)CC[C@H](O[C@@H]6O[C@H](C(=O)O)[C@@H](O)[C@H](O)[C@H]6O[C@@H]6O[C@H](CO)[C@H](O)[C@H](O)[C@H]6O[C@@H]6O[C@H](CO)[C@@H](O)[C@H](O)[C@H]6O)[C@@](C)(CO)[C@@H]5CC[C@]43C)[C@@H]2C1 [Compound 16, reference compound] ?
5.75

What would you report for O=C1c2c(O)cc(O[C@@H]3O[C@H](CO)[C@@H](O)[C@H](O)[C@H]3O)cc2OCC1c1ccc(O)cc1 (stereo partly drawn) [Compound 2] ?
10.25

// next record COc1ccc(-c2coc3cc(OC4OC(COC(C)=O)[C@@H](O)C(O)C4OC(C)=O)ccc3c2=O)cc1 (stereo partly drawn) [Compound 3]
4.18

Now this one: C[C@@H]1O[C@@H](O[C@H]2[C@H](O[C@H]3[C@H](O[C@H]4CC[C@@]5(C)[C@@H](CC[C@]6(C)[C@@H]5CC=C5[C@@H]7CC(C)(C)C[C@@H](O[C@@H]8O[C@H](CO)[C@@H](O)[C@H](O)[C@H]8O[C@@H]8O[C@@H](C)[C@H](O)[C@@H](O)[C@H]8O)[C@]7(C)CC[C@]56C)[C@]4(C)CO)O[C@H](C(=O)O)[C@@H](O)[C@@H]3O)O[C@H](CO)[C@H](O)[C@@H]2O)[C@H](O)[C@H](O)[C@H]1O [Compound 14]
3.25

Quick one: O=C1c2ccc(O[C@@H]3O[C@H](CO)[C@@H](O)[C@H](O)[C@H]3O)cc2OCC1c1ccc(O)cc1 (stereo partly drawn) [Compound 1]
9.16

Proceed to C[C@@H]1O[C@@H](O[C@H]2[C@H](O[C@@H]3CC(C)(C)C[C@H]4C5=CC[C@@H]6[C@@]7(C)CC[C@H](O[C@@H]8O[C@H](C(=O)O)[C@@H](O)[C@H](O)[C@H]8O[C@@H]8O[C@H](CO)[C@H](O)[C@H](O)[C@H]8O[C@@H]8O[C@@H](C)[C@H](O)[C@@H](O)[C@H]8O)[C@@](C)(CO)[C@@H]7CC[C@@]6(C)[C@]5(C)CC[C@@]34C)OC[C@H](O)[C@@H]2O)[C@H](O)[C@H](O)[C@H]1O [Compound 13]
3.12

Another compound to look at: O=c1c(-c2ccc(O)cc2)coc2cc(O)cc(O)c12 [Compound 5, genistein, reference compound]
2.39

# iterate: CC1(C)C[C@@H](O)[C@]2(C)CC[C@]3(C)C(=CC[C@@H]4[C@@]5(C)CC[C@H](O[C@@H]6O[C@H](C(=O)O)[C@@H](O)[C@H](O)[C@H]6O)[C@@](C)(CO)[C@@H]5CC[C@]43C)[C@@H]2C1 [Compound 17, reference compound]
9.13
